Catalogue of molecules with associated logP
assay: physchem; assay type: physicochemical; conditions: pH 8

Record CCCCNCCCC [di-n-butyl amine] . Reported logP: ~2.8

The recorded logP for entry CCNC(C)C [ethyl isopropyl amine] equals 0.93

Per the record, CCCNCCC [di-n-propyl amine] has logP of ~1.6

###

assay: pKa of amines and of their methylol adducts with formaldehyde
# binarize pKa: threshold 9 inclusive, high side y, low side n

See these solved cases before continuing.
• C1CCNC1 = y
• CCCNCCC = y
• CCCN(CO)CCC = n

Is pKa for CC(C)(N)CO [AMP, 2-amino-2-methyl-1-propanol, reference compound] at or above 9?
y

###

# pKa per entry
assay: pKa of amines and of their methylol adducts with formaldehyde

Examples from the recorded data:
• OCN1CCCCC1 [methylol adduct of piperidine] = 9.2
• CC(C)N(CO)C(C)C [methylol adduct of diisopropylamine] = 9.0

What the record says about OCN1CCCC1 [methylol adduct of pyrrolidine] : pKa is 8.9

Looking up CCN(CC)CO [methylol adduct of diethylamine] , I see its pKa listed as 8.9

Summary for this molecule, CN(C)CCO [DMEOA, N,N-dimethylethanolamine, reference compound] : pKa is 9.2
